Assay system: SARS-CoV-2 Spike on pseudotyped virus (PsV) (SARS-CoV-2, UniProt P0DTC2 14-1273)
Test details: cell-based or functional assay
Measurement kind: IC50 SARS-CoV2 PsV, IgG

Worked cases, IC50 SARS-CoV2 PsV, IgG given:
Binder: mAb 128 (antibody, V domains shown) VH: QVQLVQSGAEVKKPGASVKVSCKASGYTFTHYYMHWVRQAPGQGLEWMGIINPSSSSASYSQKFQGRVTMTRDTSTSTVYMELSSLRSEDTAVYYCARDGRYGSGSYPFDYWGQGTLVTVSS VL: DIQMTQSPSSLSASVGDRVTITCRASQNISRYLNWYQQKPGKAPKLLIYDASNLETGVPSRFSGSGSGTDFTLTISSLQPEDFATYYCQQANGFPPTFGQGTKLEIKR
IC50 SARS-CoV2 PsV, IgG: > 50 µg/mL
//
Binder: mAb 158 (antibody, V domains shown) VH: QVQLVQSGAEVKKPGASVKVSCKASGYTFTGYYMHWVRQAPGQGLEWMGWINPLNGGTNFAPKFQGRVTMTRDTSTSTVYMELSSLRSEDTAVYYCARDPGGSYSNDAFDIWGQGTLVTVSS VL: DIQMTQSPSSLSASVGDRVTITCRASQSISRYLNWYQQKPGKAPKLLIYDASNLESGVPSRFSGSGSGTDFTLTISSLQPEDFATYYCQQANSFPLTFGGGTKVDIKR
IC50 SARS-CoV2 PsV, IgG: > 50 µg/mL

--- query ---
Entry under test: mAb 192 (antibody, V domains shown) VH: QVQLVQSGAEVKKPGSSVKVSCKASGGTFSSYAISWVRQAPGQGLEWMGWINPNSGGANYAQKFQGRVTITADESTSTAYMELSSLRSEDTAVYYCSTYYYDSSGYSTDYWGQGTLVTVSS VL: DIVMTQSPLSLPVTPGEPASISCRSSQSLLHSNGYNYLDWYLQKPGQSPQLLIYAASSLQSGVPDRFSGSGSGTDFTLKISRVEAEDVGVYYCMQALQTPYTFGQGTKLEIKR . Its IC50 SARS-CoV2 PsV, IgG was > 50 µg/mL
